B1: CPEB3 Ribozyme (parent)
chain: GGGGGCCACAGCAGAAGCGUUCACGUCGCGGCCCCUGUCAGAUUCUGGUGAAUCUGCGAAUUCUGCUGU

Variants of: B1
Method notes: self-cleavage, relative activity (ratio to wild type); higher = more cleavage; co-transcriptional
Consider the reported self-cleavage of an entry and match it to a band in bottom range (below 0.3), center range (0.3 to below 0.7), top range (0.7 or more)

Into which bin does this variant go? A23C G25C
bottom range

How about G37C U67A ?
bottom range

How about C24G U64A ?
center range

How about A13U C34U ?
top range

How about G58U A60C ?
center range

How about U26A G65C ?
center range

How about A42U C45U ?
top range

How about A42C A51U ?
top range

How about U20G U44C ?
bottom range

How about A8C U44G ?
top range

How about U36A C45U ?
center range

How about A16G G58U ?
top range

How about U21A A59U ?
top range

How about C12U C22A ?
bottom range

How about G30A G31A ?
center range

How about "U67G" ?
top range

How about C18A G25A ?
bottom range

How about C29U C54A ?
bottom range

How about U43C G65A ?
top range

How about G5C A60C ?
bottom range

How about U36C G65U ?
center range
